# PROTOCOL_SUMMARY: Inhibition of Plasmodium falciparum 3D7 IspD
READOUT_NAME: IC50 (µM)

[a] O=c1c2ccccc2sn1-c1cccc(-c2ccc(Cl)cc2)c1
[b] Cc1ccc(-n2sc3ccccc3c2=O)cc1S(=O)(=O)N1CCOCC1
Look at a and b . Which one has the lower recorded IC50 number? Your choice should be expressed through its label.
a
